Target: T1, FLT-1 IgG (UniProt P17948 27-758)
T1 construct: Construct only cited from Park et al. 1994; also called FLT-IgG; FLT-1 receptor-IgG chimera; not shown: IgG part of the chimera (captured by anti-human IgG Fc)
T1 sequence (P17948 27-758): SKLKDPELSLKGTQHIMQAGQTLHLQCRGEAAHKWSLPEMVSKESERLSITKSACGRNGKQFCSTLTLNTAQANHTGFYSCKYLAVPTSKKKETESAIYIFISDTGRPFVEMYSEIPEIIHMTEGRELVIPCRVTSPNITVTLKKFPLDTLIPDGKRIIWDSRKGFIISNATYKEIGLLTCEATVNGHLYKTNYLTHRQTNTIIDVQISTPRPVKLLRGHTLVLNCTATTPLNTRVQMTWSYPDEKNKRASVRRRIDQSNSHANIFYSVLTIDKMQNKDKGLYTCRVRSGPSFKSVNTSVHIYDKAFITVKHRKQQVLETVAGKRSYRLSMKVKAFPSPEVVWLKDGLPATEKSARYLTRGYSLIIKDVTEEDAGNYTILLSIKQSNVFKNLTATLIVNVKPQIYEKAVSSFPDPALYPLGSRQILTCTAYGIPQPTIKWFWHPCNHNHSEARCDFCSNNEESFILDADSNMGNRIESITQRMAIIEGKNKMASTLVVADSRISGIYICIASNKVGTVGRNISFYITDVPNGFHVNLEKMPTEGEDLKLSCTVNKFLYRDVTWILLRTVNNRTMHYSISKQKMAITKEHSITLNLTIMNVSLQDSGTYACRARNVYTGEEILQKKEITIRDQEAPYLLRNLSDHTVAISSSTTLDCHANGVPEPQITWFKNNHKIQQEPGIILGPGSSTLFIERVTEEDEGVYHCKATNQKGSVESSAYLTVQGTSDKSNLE
Test: competition with 125I-VEGF165 for FLT-1-IgG, radioligand plate assay
Experimental: After the supernatant was discarded, the wells were washed three times in washing buffer (0.01% Tween 80 in PBS). The plate was blocked (300 µl/well) for one hr in assay buffer (0.5% BSA, 0.03% Tween 80, 0.01% Thimerosal in PBS). The supernatant was discarded and the wells were washed. […] The supernatant was discarded, the plate washed, and individual microtiter wells were counted by gamma scintigraphy (LKB model 1277).
IC50 under 0.6 ng/mL gets Yes, anything at or over 0.6 ng/mL gets No.

API: query returns whether the binder falls strictly under 0.6 ng/mL in IC50. Query: H99A, K101A VEGF (ligand, VEGF165 mutant from 293 cells, conditioned medium) APMAEGGGQNHHEVVKFMDVYQRSYCHPIETLVDIFQEYPDEIEYIFKPSCVPLMRCGGCCNDEGLECVPTEESNITMQIMRIKPHQGQHIGEMSFLQANACECRPKKDRARQENPCGPCSERRKHLFVQDPQTCKCSCKNTDSRCKARQLELNERTCRCDKPRR No

Cool, now H90A, E93A VEGF (ligand, VEGF165 mutant from 293 cells, conditioned medium; also called H9OA, E93A) APMAEGGGQNHHEVVKFMDVYQRSYCHPIETLVDIFQEYPDEIEYIFKPSCVPLMRCGGCCNDEGLECVPTEESNITMQIMRIKPHQGQAIGAMSFLQHNKCECRPKKDRARQENPCGPCSERRKHLFVQDPQTCKCSCKNTDSRCKARQLELNERTCRCDKPRR Yes

New cases:
API: query returns whether the binder falls strictly under 0.6 ng/mL in IC50. Query: R23A VEGF (ligand, VEGF165 mutant from 293 cells, conditioned medium) APMAEGGGQNHHEVVKFMDVYQASYCHPIETLVDIFQEYPDEIEYIFKPSCVPLMRCGGCCNDEGLECVPTEESNITMQIMRIKPHQGQHIGEMSFLQHNKCECRPKKDRARQENPCGPCSERRKHLFVQDPQTCKCSCKNTDSRCKARQLELNERTCRCDKPRR No

Cool, now R105A VEGF (ligand, VEGF165 mutant from 293 cells, conditioned medium) APMAEGGGQNHHEVVKFMDVYQRSYCHPIETLVDIFQEYPDEIEYIFKPSCVPLMRCGGCCNDEGLECVPTEESNITMQIMRIKPHQGQHIGEMSFLQHNKCECAPKKDRARQENPCGPCSERRKHLFVQDPQTCKCSCKNTDSRCKARQLELNERTCRCDKPRR No
